Biological target: HLA-A*11:01
Experiment: IEDB peptide-MHC binding, purified MHC/competitive/fluorescence; bounds were set here for any values at or beyond the usual limits of such assays
Details: source organism: Sudan ebolavirus
Exercise: state measured IC50 for each of the sequences provided.
One number for each entry, in µM.

1) GLSLLQLPR | 3.53
2) RSRRQTNTK | 1.47

Now consider the entry below.
Reading of IC50 for `ISDRATRKY` with HLA-A*11:01: 18.8

###

Biological target: HLA-A*33:01
Test: IEDB peptide-MHC binding, purified MHC/competitive/radioactivity; filed as Kd, often an IC50 or EC50 that approximates it; bounds were set here for any values at or beyond the usual limits of such assays
Conditions: source organism: Dengue virus 2 Jamaica/1409/1983
parameter: pKd
Numbers only, as −log10 of the molar value.

Sample records with pKd:
1) EVKSCHWPK | 8.14
2) EDKAWLVHR | 7.81
3) IAVSMANIFR | 6.55

For record `DAIDGEYRLR` the listed pKd is 6.61

###

Target: HLA-A*30:01
Test: IEDB peptide-MHC binding, purified MHC/competitive/radioactivity; filed as Kd, often an IC50 or EC50 that approximates it; bounds were set here for any values at or beyond the usual limits of such assays
Settings: source organism: Mammarenavirus choriomeningitidis
parameter: Kd

The recorded Kd for `TTDVKAAVI` is ≥ 72.2 µM

###

Target: HLA-B*53:01
Test: IEDB peptide-MHC binding, purified MHC/competitive/radioactivity; filed as Kd, often an IC50 or EC50 that approximates it; bounds were set here for any values at or beyond the usual limits of such assays
Settings: source organism: SARS coronavirus Tor2
pKd: −log10 of the molar value.
Classification field: enter Condition met for pKd values not below 8, Condition not met for values below it.

1. CPAVAVHDF | Condition not met

Given `VPYNMRVIHF` , state whether its pKd is at least 8.
Condition not met

Assess whether reported pKd for `LPIDKCSRII` sits at 8 or higher.
Condition not met

Kindly determine if pKd recorded for `MPYVFTLLF` is above or exactly 8.
Condition met

Say whether `LPFHRWHTM` shows pKd of 8 or more.
Condition not met

###

Biological target: HLA-B*40:01
Assay: IEDB peptide-MHC binding, purified MHC/direct/fluorescence; filed as Kd, often an IC50 or EC50 that approximates it; bounds were set here for any values at or beyond the usual limits of such assays
Settings: source organism: Francisella tularensis subsp. holarctica LVS
parameter: pKd
One number for each entry, as −log10 of the molar value.

For record `AEVCAHHLF` the listed pKd is 8.46

###

Target: HLA-A*23:01
Test: IEDB peptide-MHC binding, purified MHC/competitive/fluorescence; filed as Kd, often an IC50 or EC50 that approximates it; bounds were set here for any values at or beyond the usual limits of such assays
Conditions: source organism: Giardia lamblia ATCC 50803
pKd: −log10 of the molar value.
parameter: pKd

Value of measured pKd for the entry `LLDDGWAGE` : ≤ 4.70

###

Molecular target: HLA-B*46:01
Assay: IEDB peptide-MHC binding, purified MHC/direct/fluorescence; filed as Kd, often an IC50 or EC50 that approximates it; bounds were set here for any values at or beyond the usual limits of such assays
Details: source organism: Brucella abortus 2308
parameter: Kd

Noted for `RVYKNYDPR` : its Kd reads ≥ 20 µM

###

Target: HLA-B*15:01
Test: IEDB peptide-MHC binding, purified MHC/competitive/fluorescence; filed as Kd, often an IC50 or EC50 that approximates it; bounds were set here for any values at or beyond the usual limits of such assays
Settings: source organism: Influenza A virus (A/red knot/Delaware/2561/1987(H10N5))
pKd: −log10 of the molar value.
parameter: pKd

The reported value for `VMTDGPANK` in terms of pKd is ≤ 4.70

###

Biological target: HLA-B*40:02
Experiment: IEDB peptide-MHC binding, purified MHC/competitive/radioactivity; filed as Kd, often an IC50 or EC50 that approximates it; bounds were set here for any values at or beyond the usual limits of such assays
Conditions: source organism: Lymphocytic choriomeningitis virus (strain Armstrong)
parameter: Kd (nM)
Numbers only, in nM.

Lab note: measured Kd of `REAVESCPL` was 58.7

###

Target: HLA-A*02:03
Assay: IEDB peptide-MHC binding, purified MHC/competitive/radioactivity; filed as Kd, often an IC50 or EC50 that approximates it; bounds were set here for any values at or beyond the usual limits of such assays
Details: source organism: Vaccinia virus WR
Give Kd for every item shown.
One number for each entry, in µM.

For the 5 sequences below, give their Kd values.
1. VIVENDNVI
2. MAFILGIII
3. LLPLTSLVIT
4. LIFNVKSKLL
5. FTILEYLYI

1: 19.5; 2: 9.76; 3: 1.32; 4: 6.69; 5: 0.169

For every record below, what is its Kd?
1. ETKRNIARHL
2. IVPDADPPI
3. FVTDYVHEGV

[12.4, 10.7, 0.00168]

For the 4 sequences below, give their Kd values.
1. LITLILSNKL
2. NTCKPTILAT
3. RTWKVLSIMA
4. SVNASKTINA

1: 0.293; 2: 0.248; 3: 6.05; 4: 0.731

###

Target: HLA-B*53:01
Experiment: IEDB peptide-MHC binding, purified MHC/competitive/radioactivity; filed as Kd, often an IC50 or EC50 that approximates it; bounds were set here for any values at or beyond the usual limits of such assays
Settings: source organism: Hepatitis C virus (isolate 1)
pKd: −log10 of the molar value.
parameter: pKd

The recorded pKd for entry `HSKKKCDEL` equals ≤ 4.11

###

Target: HLA-B*40:01
Assay: IEDB peptide-MHC binding, purified MHC/competitive/radioactivity; filed as Kd, often an IC50 or EC50 that approximates it; bounds were set here for any values at or beyond the usual limits of such assays
Settings: source organism: SARS coronavirus Tor2
Please respond with reported pKd for every item in the list.
Answers are plain numbers, as −log10 of the molar value.

1. FEEAALCTFL | 8.70
2. QEYADVFHLY | 6.26
3. SEVGICLST | 6.62
4. SFYYIWKSYV | 5.94
5. SETLLPLTQY | 4.88
6. SEAFEYYHTL | 8.93

Read the next record carefully.
Form: sequence = `REFVFKNKDG` ; pKd = 6.81

###

Target: HLA-A*03:01
Assay: IEDB peptide-MHC binding, purified MHC/direct/fluorescence; filed as Kd, often an IC50 or EC50 that approximates it; bounds were set here for any values at or beyond the usual limits of such assays
Settings: source organism: Entamoeba histolytica HM-1:IMSS
pKd: −log10 of the molar value.
parameter: pKd

sequence `RQRHYFDSA` , pKd observed: ≤ 4.70

###

Molecular target: HLA-A*02:01
Assay: IEDB peptide-MHC binding, purified MHC/competitive/fluorescence; filed as Kd, often an IC50 or EC50 that approximates it; bounds were set here for any values at or beyond the usual limits of such assays
Conditions: source organism: Burkholderia mallei NCTC 10229
parameter: Kd (nM)
Give bare numbers, in nM.

The sequence listed as `IYDFYNAEY` shows Kd equal to 138

###

Could you please report measured Kd for the items listed next?
Biological target: HLA-A*30:02
Assay: IEDB peptide-MHC binding, purified MHC/competitive/radioactivity; filed as Kd, often an IC50 or EC50 that approximates it; bounds were set here for any values at or beyond the usual limits of such assays
Settings: source organism: SARS coronavirus Tor2
One number for each entry, in nM.

Check out these entries, answers already filled in.
1) ITLVYKVYY | 5.19
2) VMMSAPPAEY | 4.31
3) YTTTIKPVSY | 1020
4) IDATSTGNY | 8590
5) KTIVESCGNY | 1.69
6) DTSNPKTPKY | 48.9
7) ELSPRWYFY | 790
8) FTSCELYHY | 365

Respectfully, I request Kd for each entry included below.
1. YSNRNRFLY
2. AMQKESDDY
3. AMGKPVPYCY

[0.453, 126, 1.1]

###

Biological target: HLA-A*29:02
Assay: IEDB peptide-MHC binding, purified MHC/competitive/fluorescence; filed as Kd, often an IC50 or EC50 that approximates it; bounds were set here for any values at or beyond the usual limits of such assays
Conditions: source organism: Vibrio cholerae 2740-80
parameter: Kd (nM)
Give bare numbers, in nM.

Kd value, target or system HLA-A*29:02, for `VDFGIIWRY` : 100

###

Biological target: HLA-C*03:03
Experiment: IEDB peptide-MHC binding, purified MHC/direct/fluorescence; filed as Kd, often an IC50 or EC50 that approximates it; bounds were set here for any values at or beyond the usual limits of such assays
Conditions: source organism: Giardia lamblia ATCC 50803
parameter: pKd
Numbers only, as −log10 of the molar value.

Given item `VAAKGAPAL` , the value recorded as its pKd is 8.52
